Assayed Target: Protein cereblon/B-cell lymphoma 6 protein (Homo sapiens) (UniProt Q96SW2+P41182)
Experiment Description: PROTAC activity at CRBN/N-terminal HiBit-tagged BCL6 in human HT-1080 cells transfected with pLV-UBC-N-HiBiT- BCL6-PGK-puro assessed as degradation of BCL6 by measuring ratio of trough concentration of protein in cell compared to the concentration of protein before the cell contact with compound (Ymin) incubated for 5 hrs by luminescence based NANO-Glo HIBiT lytic detection assay relative to control
Hi there, I'd appreciate the recorded Emin for every entry that follows.

Record CNC(=O)COc1cc2cc(Nc3nc(N4CCC(CN5CCC(c6ccc7c(C8CCC(=O)NC8=O)nn(C)c7c6F)CC5)CC4)ncc3Cl)cc3c2n(c1=O)[C@@H](C)CO3 (stereo partly drawn) . Reported Emin: < 30%

Record CNC(=O)COc1cc2cc(Nc3nc(N4CCC5(CCN(CC6CCN(c7cc8c(cc7F)c(C7CCC(=O)NC7=O)nn8C)CC6)CC5)CC4)ncc3Cl)cnc2n(C)c1=O (stereo not drawn) . Reported Emin: < 30%

Record CNC(=O)COc1cc2cc(Nc3nc(N4CCC5(CC4)CCN([C@H](C)C4CCN(c6ccc7c(C8CCC(=O)NC8=O)nn(C)c7c6)CC4)CC5)ncc3Cl)cnc2n(C)c1=O (stereo partly drawn) . Reported Emin: < 30%

----------
Assayed Target: Protein cereblon/B-cell lymphoma 6 protein (Homo sapiens, UniProt P41182+Q96SW2)
Experiment Description: PROTAC activity at CRBN/N-terminal HiBit-tagged BCL6 in human HT-1080 cells transfected with pLV-UBC-N-HiBiT- BCL6-PGK-puro assessed as degradation of BCL6 incubated for 5 hrs by luminescence based NANO-Glo HIBiT lytic detection assay
Hi there, I'd appreciate the recorded EC50 for every entry that follows.

Record CNC(=O)COc1cc2cc(Nc3nc(N4CCN(CC5CCN(c6ccc7c(C8CCC(=O)NC8=O)nn(C)c7c6)CC5(F)F)C(C)C4)ncc3Cl)cnc2n(C(C)C)c1=O (stereo unspecified) . Reported EC50: ≤ 25 nM

Record CNC(=O)COc1cc2cc(Nc3nc(N4CCC(CN5CCC(c6ccc7c(C8CCC(=O)NC8=O)nn(C)c7c6F)CC5)CC4)ncc3Cl)cc3c2n(c1=O)[C@@H](C)CO3 (stereo partly specified) . Reported EC50: ≤ 25 nM

Record CNC(=O)COc1cc2cc(Nc3nc(N4CCC5(CC4)CCN([C@H](C)C4CCN(c6ccc7c(C8CCC(=O)NC8=O)nn(C)c7c6)CC4)CC5)ncc3Cl)cnc2n(C)c1=O (stereo partly specified) . Reported EC50: ≤ 25 nM

Record CNC(=O)COc1cc2cc(Nc3nc(N4CCC5(CCN(CC6CCN(c7cc8c(cc7F)c(C7CCC(=O)NC7=O)nn8C)CC6)CC5)CC4)ncc3Cl)cnc2n(C)c1=O (stereo unspecified) . Reported EC50: ≤ 25 nM

Record CNC(=O)COc1cc2cc(Nc3nc(N4CC[C@@H](CN5CCN(c6cccc7c(C8CCC(=O)NC8=O)nn(C)c67)CC5)[C@@H](C)C4)ncc3Cl)cc3c2n(c1=O)CCO3 (stereo partly specified) . Reported EC50: ≤ 25 nM

Record CNC(=O)COc1cc2cc(Nc3nc(N4CCN(CC5CCN(c6cccc7c(C8CCC(=O)NC8=O)nn(C)c67)CC5)CC4)ncc3Cl)cc3c2n(c1=O)CCO3 (stereo unspecified) . Reported EC50: ≤ 25 nM
